From: paper PMC10397247

System under test: T1, 4H3666-AA
T1 chain: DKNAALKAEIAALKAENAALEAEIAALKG
Experiment summary: two-hybrid library CCmax;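 further: natural log of median RNA to DNA barcode read ratio; higher means stronger binding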
Condition: mean of both orientations
Recorded interaction score values for a group of binders are listed next.
Give the value as a plain number.

| Binder | interaction score |
| --- | --- |
| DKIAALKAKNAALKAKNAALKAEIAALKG [4H3066-AA] | 0.0105 |

Data request: Please look at this binder and report its interaction score: DKNAALEAKIAALKAENAALKAEIAALEG [4H3417-AA]
Data returned: 1.09

Data request: Please look at this binder and report its interaction score: DKNAALEAEIAALEAENAALKAKIAALKG [4H3102-AA]
Data returned: 1.73

Data request: Please look at this binder and report its interaction score: DKNAALKAEIAALEAKIAALKAENAALKG [4H3628-AA]
Data returned: -1.56
